target: d746-750/T790M/C797S mutant EGFR (Homo sapiens, UniProt P00533, C797S/DEL746-750/T790M); construct: purchased Reaction Biology Corp. (Malvern, PA, USA); experiment: radiometric ([γ-33P]-ATP) kinase assay, triple mutant EGFR; type: biochemical; conditions: Table 3, derivatives of 2; mean ± SD of two experiments; read-out: IC50 EGFR^d746-750/T790M/C797S
Sequence (P00533 with tags, fused parts or gaps DEL746-750/T790M/C797S): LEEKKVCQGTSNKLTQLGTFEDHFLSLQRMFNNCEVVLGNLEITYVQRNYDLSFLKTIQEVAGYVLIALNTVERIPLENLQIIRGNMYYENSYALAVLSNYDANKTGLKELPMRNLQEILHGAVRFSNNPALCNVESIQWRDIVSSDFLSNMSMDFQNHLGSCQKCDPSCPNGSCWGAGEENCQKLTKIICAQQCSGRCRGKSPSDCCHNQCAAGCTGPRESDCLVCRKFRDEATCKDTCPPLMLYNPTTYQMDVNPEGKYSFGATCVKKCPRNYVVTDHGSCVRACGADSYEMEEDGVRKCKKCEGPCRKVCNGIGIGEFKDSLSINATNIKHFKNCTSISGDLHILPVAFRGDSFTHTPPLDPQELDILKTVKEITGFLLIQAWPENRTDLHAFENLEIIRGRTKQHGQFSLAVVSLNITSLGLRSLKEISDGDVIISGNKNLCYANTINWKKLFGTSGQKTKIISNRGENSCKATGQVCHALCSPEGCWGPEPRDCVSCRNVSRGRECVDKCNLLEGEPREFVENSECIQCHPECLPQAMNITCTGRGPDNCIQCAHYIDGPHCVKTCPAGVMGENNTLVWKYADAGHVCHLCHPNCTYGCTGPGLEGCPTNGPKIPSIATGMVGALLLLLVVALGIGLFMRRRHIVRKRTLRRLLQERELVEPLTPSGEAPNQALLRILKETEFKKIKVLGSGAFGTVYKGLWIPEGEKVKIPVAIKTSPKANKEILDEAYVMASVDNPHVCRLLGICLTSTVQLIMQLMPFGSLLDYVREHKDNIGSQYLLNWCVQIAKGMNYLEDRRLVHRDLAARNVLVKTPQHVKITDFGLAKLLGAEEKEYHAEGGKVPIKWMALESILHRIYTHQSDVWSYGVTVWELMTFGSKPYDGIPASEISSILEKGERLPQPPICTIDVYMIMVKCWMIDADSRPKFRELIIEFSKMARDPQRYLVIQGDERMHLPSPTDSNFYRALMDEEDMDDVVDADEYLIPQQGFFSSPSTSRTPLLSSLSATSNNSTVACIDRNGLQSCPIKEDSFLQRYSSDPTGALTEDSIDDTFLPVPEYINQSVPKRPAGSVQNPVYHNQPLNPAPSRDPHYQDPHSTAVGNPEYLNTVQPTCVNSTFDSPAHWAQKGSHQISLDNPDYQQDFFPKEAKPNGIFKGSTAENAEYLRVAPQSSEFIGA
Quick reference: IC50 of the listed items.
Give the value in nM but do not write nM after it.

Below: 6 compounds and their reported IC50.
Cn1cnc(CNc2nc(-c3cc(C=O)ccc3O)nc3ccccc23)c1; 7.93
CCN(CC)CCCNc1nc(-c2ccccc2O)nc2ccccc12; 516
Cn1cnc(CNc2nc(-c3cc(C#N)ccc3O)nc3ccccc23)c1; 3.38
Oc1ccccc1-c1nc(NCc2cscn2)c2ccccc2n1; 1120
N#Cc1ccc(O)c(-c2nc(NCCc3c[nH]cn3)c3ccccc3n2)c1; 4.84
N#Cc1ccc(O)c(-c2nc(NCc3c[nH]cn3)c3ccccc3n2)c1; 7.47

Challenge: Which measured IC50 value corresponds to "CCN(CC)CCCNc1nc(-c2cc(C#N)ccc2O)nc2ccccc12" ?
Response given: 26.5

Challenge: Ok, now "N#Cc1ccc(O)c(-c2nc(NCc3cocn3)c3ccccc3n2)c1"
Response given: 593

###

test system: Ba/F3 cell lines with the wild type EGFR; experiment: cell proliferation inhibition assay, Ba/F3 wild-type EGFR; conditions: Mus musculus, BaF3, 72 h, read-out: IC50 Ba/F3
Readout: IC50 (nM)
Give just the numeric value; nM need not be written.

COc1cc(N2CCC(N3CCN(C)CC3)CC2)ccc1Nc1ncc(Cl)c(Nc2ccccc2P(C)(C)=O)n1 [Brigatinib, reference compound]; 1560

Challenge: Field request: IC50 | item: Cn1cnc(CNc2nc(-c3cc(C#N)ccc3O)nc3ccccc23)c1 [Compound 19]
Response given: 2470

###

molecular target: wild type EGFR (Homo sapiens, UniProt P00533); construct: purchased Reaction Biology Corp. (Malvern, PA, USA); assay: radiometric ([γ-33P]-ATP) kinase assay, wild-type EGFR; type: biochemical; details: Table 2, derivatives of 1; wild type; mean ± SD of two experiments; read-out: IC50 EGFR
Sequence (P00533 25-1210): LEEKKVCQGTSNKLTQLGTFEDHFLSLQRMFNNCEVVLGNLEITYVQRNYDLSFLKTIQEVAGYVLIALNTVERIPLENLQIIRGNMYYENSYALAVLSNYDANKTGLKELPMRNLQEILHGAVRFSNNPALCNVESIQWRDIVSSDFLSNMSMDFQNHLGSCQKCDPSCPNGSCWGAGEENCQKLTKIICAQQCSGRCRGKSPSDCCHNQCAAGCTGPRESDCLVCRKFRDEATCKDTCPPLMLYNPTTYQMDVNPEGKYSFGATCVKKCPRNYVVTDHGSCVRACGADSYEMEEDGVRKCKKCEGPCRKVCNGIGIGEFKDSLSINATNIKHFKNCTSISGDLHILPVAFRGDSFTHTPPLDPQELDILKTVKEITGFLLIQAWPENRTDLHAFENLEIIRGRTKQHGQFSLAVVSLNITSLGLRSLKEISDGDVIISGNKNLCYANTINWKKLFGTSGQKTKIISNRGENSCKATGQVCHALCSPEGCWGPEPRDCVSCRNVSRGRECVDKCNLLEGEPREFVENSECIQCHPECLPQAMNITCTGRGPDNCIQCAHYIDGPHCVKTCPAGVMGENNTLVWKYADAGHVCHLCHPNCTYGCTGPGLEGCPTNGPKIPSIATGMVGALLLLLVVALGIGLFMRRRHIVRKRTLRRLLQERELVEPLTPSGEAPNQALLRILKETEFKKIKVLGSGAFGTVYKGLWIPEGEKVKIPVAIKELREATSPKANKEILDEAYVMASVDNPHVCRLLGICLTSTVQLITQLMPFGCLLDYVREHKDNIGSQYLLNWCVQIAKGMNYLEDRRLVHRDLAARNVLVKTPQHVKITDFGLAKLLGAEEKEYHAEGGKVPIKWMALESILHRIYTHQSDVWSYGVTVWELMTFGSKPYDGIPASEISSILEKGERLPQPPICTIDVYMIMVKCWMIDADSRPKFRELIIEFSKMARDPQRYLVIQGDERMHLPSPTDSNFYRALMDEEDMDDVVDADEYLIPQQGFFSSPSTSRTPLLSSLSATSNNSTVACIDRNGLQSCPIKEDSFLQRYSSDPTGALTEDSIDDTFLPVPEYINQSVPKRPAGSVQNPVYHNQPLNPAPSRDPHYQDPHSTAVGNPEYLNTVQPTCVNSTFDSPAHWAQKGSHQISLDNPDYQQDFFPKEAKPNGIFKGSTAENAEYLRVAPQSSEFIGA
Readout: IC50 (µM)
Field: numeric (µM). Do not append units.

O=C1/C(=C/c2cc3ccccc3o2)Oc2c1ccc(O)c2CN1CCCCC1; 68.7
CC1CCCN(Cc2c(O)ccc3c2O/C(=C\c2cc4ccccc4o2)C3=O)C1 (stereo not shown); 65.7
CC1CCN(Cc2c(O)ccc3c2O/C(=C\c2cc4ccccc4o2)C3=O)CC1; 78.7
O=C1/C(=C/c2cc3cc(O)ccc3o2)Oc2c1ccc(O)c2CN1CCNCC1; 1.04
COc1ccc2oc(/C=C3\Oc4c(ccc(O)c4CN4CCNCC4)C3=O)cc2c1; 36.8

Continue with the compound presented below.
Challenge: Which measured IC50 value corresponds to "O=C1/C(=C/c2cc3ccccc3o2)Oc2c1ccc(O)c2CN1CCNCC1" ?
Response given: 21.3

###

Molecular target: d746-750/T790M/C797S mutant EGFR (Homo sapiens, UniProt P00533, C797S/DEL746-750/T790M)
Construct: purchased Reaction Biology Corp. (Malvern, PA, USA)
Test: radiometric ([γ-33P]-ATP) kinase assay, triple mutant EGFR
Assay type: biochemical
Conditions: Table 2; wild type IC50 over triple mutant IC50
Protocol: This small number of virtual hits exemplifies the difficulty in discovering the fourth-generation inhibitors that are specific for the triple mutant. This can be understood in the context of the high structural similarity between the mutant and the wild type. All virtual hits were assessed for the presence of inhibitory activity against the d746-750/T790M/C797S mutant and the wild type via in vitro radiometric ([γ-^33P]-ATP) kinase assays (Reaction Biology Corp., Malvern, PA, USA). […]
Binarize Selectivity at 30; below is satisfied, at or above is not satisfied.

CC1CCCCN1Cc1c(O)ccc2c1O/C(=C\c1cc3ccccc3o1)C2=O (stereo not shown); not satisfied
COc1ccc2oc(/C=C3\Oc4c(ccc(O)c4CN4CCNCC4)C3=O)cc2c1; satisfied

Challenge: Dear colleague, could you confirm whether Selectivity of CC1CCCN(Cc2c(O)ccc3c2O/C(=C\c2cc4ccccc4o2)C3=O)C1 (stereo not shown) falls below 30? Thanks.
Response given: not satisfied

Challenge: And "CC1CCN(Cc2c(O)ccc3c2O/C(=C\c2cc4ccccc4o2)C3=O)CC1" ?
Response given: satisfied

Challenge: For "O=C1/C(=C/c2cc3ccccc3o2)Oc2c1ccc(O)c2CN1CCCCC1" then?
Response given: satisfied

Challenge: Quick one: "O=C1/C(=C/c2cc3cc(O)ccc3o2)Oc2c1ccc(O)c2CN1CCNCC1"
Response given: satisfied

// provenance: paper PMC7730458
